Cited source for all entries: patent US20130053541A1

TGT: T1, Annexin A5 (Homo sapiens (Human), UniProt P08758 2-320, directly labeled with a fluorescent tag (Cy 5 per paragraph 324; Cy3 per paragraph 57))
T1 construct: also called ANXA5; ANX-A5
T1 sequence: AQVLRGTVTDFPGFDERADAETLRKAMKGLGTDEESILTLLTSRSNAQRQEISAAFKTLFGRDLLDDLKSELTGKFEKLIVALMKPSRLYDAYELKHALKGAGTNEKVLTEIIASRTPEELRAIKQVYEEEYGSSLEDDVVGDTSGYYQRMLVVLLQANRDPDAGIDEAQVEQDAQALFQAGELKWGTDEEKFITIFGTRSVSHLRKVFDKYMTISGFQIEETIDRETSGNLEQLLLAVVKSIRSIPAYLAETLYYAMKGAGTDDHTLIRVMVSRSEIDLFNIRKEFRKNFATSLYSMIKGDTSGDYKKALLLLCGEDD
PROTOCOL SUMMARY: peptide density-array chip
PARAMETER: Kd (nM)

[
  {
    "BINDER": "SERCWARY (Array-synthesised 8-mer)",
    "QUANTITATIVE RESULT": 218
  },
  {
    "BINDER": "AYLGHAAG (Array-synthesised 8-mer)",
    "QUANTITATIVE RESULT": 57.5
  },
  {
    "BINDER": "SERCYARY (Array-synthesised 8-mer)",
    "QUANTITATIVE RESULT": 301
  },
  {
    "BINDER": "AYLVHAAG (Array-synthesised 8-mer)",
    "QUANTITATIVE RESULT": 92.2
  },
  {
    "BINDER": "AYLHHAAG (Array-synthesised 8-mer)",
    "QUANTITATIVE RESULT": 87.6
  },
  {
    "BINDER": "AYLMHAAG (Array-synthesised 8-mer)",
    "QUANTITATIVE RESULT": 63
  },
  {
    "BINDER": "AYLHYAAG (Array-synthesised 8-mer)",
    "QUANTITATIVE RESULT": 21.9
  },
  {
    "BINDER": "SERYYARY (Array-synthesised 8-mer)",
    "QUANTITATIVE RESULT": 361
  }
]
